For each record, write down the corresponding pEC50.
Test system: CEM cells HIV-1 protection, formazan growth assay
method description: NCI AIDS Antiviral Assay
pEC50: −log10 of the molar value.

GET /values?item= `c1cc(-c2ncc3ccncc3n2)ccn1` &system= CEM cells HIV-1 protection, formazan growth assay returns pEC50: < 4.19

GET /values?item= `[N-]=[N+]=Nc1c(N2CCOCC2)c(Cl)nc2ccccc12` &system= CEM cells HIV-1 protection, formazan growth assay returns pEC50: < 3.70

GET /values?item= `Cc1sc2nc3n(c(=O)c2c1C)N=CN(c1ccccc1)C3` &system= CEM cells HIV-1 protection, formazan growth assay returns pEC50: < 4.00

GET /values?item= `S=c1cc(-c2ccccc2)ss1` &system= CEM cells HIV-1 protection, formazan growth assay returns pEC50: < 3.70

GET /values?item= O=c1oc2ccccc2c(O)c1C(c1ccc2c(c1)OCO2)N1CCOCC1 (stereo not drawn) &system= CEM cells HIV-1 protection, formazan growth assay returns pEC50: < 3.70

GET /values?item= `Oc1ccc(S)cc1CNC1CCCCC1` &system= CEM cells HIV-1 protection, formazan growth assay returns pEC50: < 3.70

GET /values?item= NC(=S)N/N=C1\c2ccccc2CCC1CCC1(O)CCc2ccccc2C1=O (stereo not drawn) &system= CEM cells HIV-1 protection, formazan growth assay returns pEC50: < 3.70

GET /values?item= `O=C(CCCCCCCCC(=O)N1C(=O)CC(=O)N(c2cccc(Cl)c2)C1=S)N1C(=O)CC(=O)N(c2cccc(Cl)c2)C1=S` &system= CEM cells HIV-1 protection, formazan growth assay returns pEC50: < 3.70

* * *

Test system: CEM cells HIV-1 protection, formazan growth assay
method description: NCI AIDS Antiviral Assay
condition notes: measured here: growth of uninfected CEM cells
Field 'label' (enum: rule met / rule not met). Set to rule met when IC50 is strictly under 20 µM; else rule not met.

Exercise: Does this compound meet the criterion IC50 < 20 µM? `Cc1ccc2oc(=O)c(-c3ccccc3)nc2c1`
Solution: rule not met

Exercise: Does this compound meet the criterion IC50 < 20 µM? `C[N+](C)([O-])C12CC3CC(CC(C3)C1)C2`
Solution: rule not met

Exercise: Does this compound meet the criterion IC50 < 20 µM? `N#C/C(=C\NC(=S)C(N)=S)C(=O)c1ccc2ccccc2c1`
Solution: rule not met

Exercise: Does this compound meet the criterion IC50 < 20 µM? COC(=O)C1=C(C(=O)NNc2ccccc2)N(c2cccnc2Cl)C(c2ccccc2)=CC1c1ccccc1 (centres undefined)
Solution: rule not met

Exercise: Does this compound meet the criterion IC50 < 20 µM? `Nc1cc(C(=O)Nc2ccc(C3=NCCN3)cc2)cc(C(=O)Nc2ccc(C3=NCCN3)cc2)c1`
Solution: rule not met

Exercise: Does this compound meet the criterion IC50 < 20 µM? C=CCN1C(N)=C(C#N)C(C#N)(C#N)C1CCC (centres undefined)
Solution: rule not met

Exercise: Does this compound meet the criterion IC50 < 20 µM? `COc1ccc(/C=c2\[nH]c3nc(=O)c(N4CCOCC4)c(N)n3c2=O)cc1`
Solution: rule not met

Exercise: Does this compound meet the criterion IC50 < 20 µM? CCN(CC)CCC12CC(C)OC1=Nc1ccccc1NC2=O (centres undefined)
Solution: rule not met

Exercise: Does this compound meet the criterion IC50 < 20 µM? COC(=O)C(COC(=O)/C=C/c1ccc(OC(C)=O)c(OC(C)=O)c1)OC(=O)/C=C/c1ccc(OC(C)=O)c(OC(C)=O)c1 (centres undefined)
Solution: rule not met

Exercise: Does this compound meet the criterion IC50 < 20 µM? `COC(=O)c1cc2ccc(OC(C)=O)c(OC(C)=O)c2cn1`
Solution: rule met

Exercise: Does this compound meet the criterion IC50 < 20 µM? `CCOC(=O)c1cnc(-n2[nH]c3c(c2=O)CCCC3)[nH]c1=O`
Solution: rule not met

Exercise: Does this compound meet the criterion IC50 < 20 µM? CC(=O)OC1C=CN(C(C)=O)C(SC(C)(C)C)C1(C)O (centres undefined)
Solution: rule not met

Exercise: Does this compound meet the criterion IC50 < 20 µM? `Cc1ccc(S(=O)(=O)N2c3ccccc3[C@H]3CCC=C[C@H]32)cc1`
Solution: rule met

Exercise: Does this compound meet the criterion IC50 < 20 µM? `Cc1cc(C)nc(NS(=O)(=O)c2ccc(Nc3c4ccccc4nc4c(C(=O)NCCO)cccc34)cc2)n1`
Solution: rule met

Exercise: Does this compound meet the criterion IC50 < 20 µM? `Brc1cc2c(cc1C1SCCS1)OCO2`
Solution: rule not met

Exercise: Does this compound meet the criterion IC50 < 20 µM? `CCOC(=O)C(CC[C@@H]1N[C@H](C(N)=O)Cc2c1[nH]c1ccccc21)C(=O)OCC`
Solution: rule not met

Exercise: Does this compound meet the criterion IC50 < 20 µM? `Cc1nc(Nc2nnc(-c3cc([N+](=O)[O-])cc([N+](=O)[O-])c3C)o2)sc1C(=O)CC(=O)Cc1nc2ccc(Cl)cc2[nH]c1=O`
Solution: rule not met

Exercise: Does this compound meet the criterion IC50 < 20 µM? `CCOC(=O)CCCCCNc1nc(Cl)nc(Cl)n1`
Solution: rule not met

Exercise: Does this compound meet the criterion IC50 < 20 µM? N#CC1(C#N)C(c2ccccc2)C=CC(c2ccc([N+](=O)[O-])cc2)C1(C#N)C#N (centres undefined)
Solution: rule met

Exercise: Does this compound meet the criterion IC50 < 20 µM? CCOC1CCC2C(CCC(/C=C/c3ccc(O)c4ncccc34)N2C)C1 (centres undefined)
Solution: rule met

Exercise: Does this compound meet the criterion IC50 < 20 µM? `COc1cc(/C=C/C(=O)c2sc(NNC(C)=O)nc2C)ccc1O`
Solution: rule not met

Exercise: Does this compound meet the criterion IC50 < 20 µM? `O=C(O)c1c(Cl)c(Cl)c(Cl)c(Cl)c1-c1c2ccc(=O)cc-2oc2cc(O)ccc12`
Solution: rule not met

Exercise: Does this compound meet the criterion IC50 < 20 µM? O=S(=O)(O)C(O)CCC(O)S(=O)(=O)O (centres undefined)
Solution: rule not met

Exercise: Does this compound meet the criterion IC50 < 20 µM? `COc1cc(/C=C\C(=O)O)ccc1O`
Solution: rule not met

Exercise: Does this compound meet the criterion IC50 < 20 µM? `CCOC(=O)N1CCN(c2c(N)nc(C)[nH]c2=O)CC1`
Solution: rule not met

Exercise: Does this compound meet the criterion IC50 < 20 µM? `C=CCNc1nc2c(N)ncnc2s1`
Solution: rule not met

Exercise: Does this compound meet the criterion IC50 < 20 µM? COC1(c2ccccc2)Oc2ccccc2C(=O)C1(O)C[N+](=O)[O-] (centres undefined)
Solution: rule met
